test: Inhibition of Mycobacterium tuberculosis ADH assessed as decrease in conversion of L-alanine to pyruvate by measuring NADH by spectrophotometry; parameters: species or system Mycobacterium tuberculosis H37Rv
IC50 under 6 µM gets y, anything at or over 6 µM gets n.

These solved cases illustrate the format of a correct answer.
compound.smiles: CCc1nc(Nc2cc(C)ccc2C)c2c3c(sc2n1)CCCC3
class.name: n
//
compound.smiles: COc1ccc(Nc2nc(C3CC3)nc3sc4c(c23)CCCC4)cc1
class.name: n
//
compound.smiles: c1ccc(Nc2nc(C3CC3)nc3sc4c(c23)CCCC4)cc1
class.name: n
//
compound.smiles: CO[C@H]1/C=C/O[C@@]2(C)Oc3c(C)c(O)c4c(O)c(c(/C=N/N5CCN(C)CC5)c(O)c4c3C2=O)NC(=O)/C(C)=C\C=C\[C@H](C)[C@H](O)[C@@H](C)[C@@H](O)[C@@H](C)[C@H](OC(C)=O)[C@@H]1C
class.name: n
//
compound.smiles: c1ccc(Nc2nc(-c3ccccc3)nc3sc4c(c23)CCCC4)cc1
class.name: n
//
compound.smiles: Brc1ccc(Nc2nc(-c3ccccc3)nc3sc4c(c23)CCCC4)cc1
class.name: n

Bench note: check whether Cc1ccc(Nc2nc(C3CC3)nc3sc4c(c23)CCCC4)cc1 shows IC50 below 6 µM
n

Bench note: check whether Clc1ccc(Nc2nc(-c3ccccc3)nc3sc4c(c23)CCCC4)cc1 shows IC50 below 6 µM
y

Bench note: check whether CCc1nc(Nc2ccc(OC)cc2)c2c3c(sc2n1)CCCC3 shows IC50 below 6 µM
y

Bench note: check whether NNC(=O)c1ccncc1 shows IC50 below 6 µM
n
